- Run Conditions: 25 °C
Attribute Measured: log10 of solubility (log10 of the value in mM)
Scale: log10; quantity: solubility; unit before log: mM

Example entries and their recorded answers appear below.
- CCCCCCCCC(=O)OCC: -0.80
- Brc1ccc(Br)c(Br)c1: -1.65
- CCCOC(=O)CC: 1.66
- C=CC(O)CC (centres undefined): 3.02
- CCCCOC: 2.01
- CC(C)C(C)(C)O: 2.61
- CC(C)COC=O: 2.00
- Clc1cccc(I)c1: -0.54

Look at each compound and report its log10 of solubility.
1. CCCCCCC=O
2. CCOC(=O)CCCCCC(=O)OCC
3. CCOC(C)C
4. CCCCCCCC(=O)OCC
5. CCC(C)C(O)C(C)CC (centres undefined)
6. CCCCCCCCCC(=O)OCC
7. CCCCOC(=O)c1ccc(N)cc1
8. CC(C)CC(C)CO (centres undefined)

1. 1.04
2. 0.97
3. 2.44
4. -0.39
5. 0.49
6. -1.10
7. 0.24
8. 1.40

Value sought for every listed compound: log10 of solubility.
1. COc1ccc(NC(C)=O)cc1
2. CCCOCC
3. CCCCC(=O)OCC

1.96
2.24
1.23

Dear colleague, could you send me log10 of solubility for each of the items below? Thanks.
1. CCOC(=O)CCCCCCC(=O)OCC
2. CCCCCCC(=O)OCC
3. Clc1ccccc1Br
4. CC(C)CC(C)(C)O
5. FC(F)(F)CCl
6. C=COC=C

1. 0.47
2. 0.26
3. -0.42
4. 2.05
5. 1.89
6. 1.89

---

Attribute Measured: logP

Noted for CCCCCCl : its logP reads 2.73

---

- Run Conditions: 27 °C
Attribute Measured: solubility (µM)
Numbers only, in µM.

Form field solubility, entry Ic1ccccc1I : 59.1

---

- Run Conditions: 25 °C
Attribute Measured: solubility (mM)
Give bare numbers, in mM.

Known results for compounds:
• Ic1cccc(I)c1 = 0.0286
• CCC(C)(O)C(C)(C)C (centres undefined) = 53.6
• CCC(=O)OC(C)C = 51.2

State recorded solubility for all listed compounds.
1. CCCCCC(=O)OCC
2. CC(C)CCOC=O
3. CCCCCC[C@@H](O)CC
4. CCOC(=O)CCCCCCCC(=O)OCC

4.36
29.3
2.18
1.02

---

Kindly state solubility for each of the entries shown.
- Run Conditions: 25 °C
Give bare numbers, in mM.

// known answers, use as guide
* C/C=C\C | 10.3
* CCC(C)C(C)(C)O (configuration not stated) | 135
* Clc1ccccc1I | 0.291
* CCCCCCCCCC(C)O (configuration not stated) | 1.15
* C#CCCCCCCC | 0.068
* CCCC(Cl)Cl | 3.96

Alright, here's another compound for you.
The reported solubility of the compound CCC(=O)C(C)C was 155

Origin of measurements: the OPERA property sets (Mansouri et al. 2018)
